# MEASURED_TARGET: human microsomal 11β-HSD1 (Homo sapiens)
# TEST_DESCRIPTION: Inhibition of cortisone reduction (11β-HSD1 reductase activity) in human liver microsomes, cortisol quantified by HPLC
# MEASUREMENT_SETUP: IC50, inhibition of cortisone reduction, stored solution, human liver microsomes, aqueous solution stored at −20°C for one week
pIC50: −log10 of the molar value.

>  <COMPOUND>
O=C(O[C@@H]1Cc2c(O)cc(O)cc2O[C@@H]1c1cc(O)c(O)c(O)c1)c1cc(O)c(O)c(O)c1 [EGCG, (−)-epigallocatechin-3-gallate]

>  <MEASURED_TARGET>
human microsomal 11β-HSD1 (Homo sapiens)

>  <pIC50>
4.57

$$$$

###

# MEASURED_TARGET: 11β-HSD1 in human liver microsomes (Homo sapiens, UniProt P28845)
pIC50: −log10 of the molar value.

>  <COMPOUND>
O=C(O[C@@H]1Cc2c(O)cc(O)cc2O[C@@H]1c1cc(O)c(O)c(O)c1)c1cc(O)c(O)c(O)c1 [EGCG, (−)-epigallocatechin-3-gallate]

>  <pIC50>
3.88

$$$$

###

# MEASURED_TARGET: purified 11β-HSD1 (Homo sapiens, UniProt P28845)
# Construct: from tissue; host or cells: human liver
# TEST_DESCRIPTION: Inhibition of cortisone reduction by purified human 11β-HSD1
# Format: biochemical
# MEASUREMENT_SETUP: purified human 11β-HSD1; read-out: Ki (estimated by Dixon-plot) on cortisone reduction

>  <COMPOUND>
O=C(O[C@@H]1Cc2c(O)cc(O)cc2O[C@@H]1c1cc(O)c(O)c(O)c1)c1cc(O)c(O)c(O)c1 [EGCG, (−)-epigallocatechin-3-gallate]

>  <Ki / µM>
20.9

$$$$

###

# MEASURED_TARGET: human microsomal 11β-HSD1 (Homo sapiens, UniProt P28845)
# Sequence (P28845 whole entry): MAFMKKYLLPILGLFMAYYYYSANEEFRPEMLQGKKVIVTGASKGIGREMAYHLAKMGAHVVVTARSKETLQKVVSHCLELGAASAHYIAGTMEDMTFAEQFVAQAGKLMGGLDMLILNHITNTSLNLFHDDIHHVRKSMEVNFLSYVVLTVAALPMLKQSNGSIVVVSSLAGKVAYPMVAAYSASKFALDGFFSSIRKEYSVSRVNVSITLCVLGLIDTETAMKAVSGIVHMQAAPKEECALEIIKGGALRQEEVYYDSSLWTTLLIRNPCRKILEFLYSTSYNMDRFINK
# TEST_DESCRIPTION: Inhibition of cortisone reduction (11β-HSD1 reductase activity) in human liver microsomes, cortisol quantified by HPLC
# MEASUREMENT_SETUP: IC50, inhibition of cortisone reduction, human liver microsomes, freshly prepared solution
pIC50: −log10 of the molar value.

>  <COMPOUND>
O=C(O[C@@H]1Cc2c(O)cc(O)cc2O[C@@H]1c1cc(O)c(O)c(O)c1)c1cc(O)c(O)c(O)c1 [EGCG, (−)-epigallocatechin-3-gallate]

>  <MEASURED_TARGET>
human microsomal 11β-HSD1 (Homo sapiens, UniProt P28845)

>  <pIC50>
4.24

$$$$

The reported measurements were obtained from paper PMC3880318.
